- ASSAY_OVERVIEW: Comment Code material properties: vapor pressure, ClogP, probability of ingredient color instability, odor detection threshold, melamine formaldehyde PMC headspace response ratio and leakage, liquid dish neat product liquid-air partition coefficient
- Format: physicochemical
- MEASUREMENT_PARAMETERS: cell strings several class symbols together; each letter is one property class of L1
ENDPOINT_NAME: Comment Code

compound=C=C[C@](C)(O)CC[C@@H]1[C@@]2(C)CCCC(C)(C)[C@@H]2CC[C@@]1(C)O endpoint_name="Comment Code" recorded_value=DEFHJ
compound="CC(=O)OC1CC2C3C=CCC3C1C2(C)C (stereo not drawn)" endpoint_name="Comment Code" recorded_value=DEFHJK
compound=CC1=C(C/C=C(\C)C=O)C(C)(C)CCC1 endpoint_name="Comment Code" recorded_value=DHJK
compound=CC=Cc1ccc(OC(C)=O)c(OC)c1 endpoint_name="Comment Code" recorded_value=CFHJK

Problem: Return Comment Code (reported value) for this compound: CC(C)C(=O)OCc1ccccc1
Result: BCHJK

Problem: Return Comment Code (reported value) for this compound: C=C(C)C1CC=C(C)C(=O)C1 (stereo not drawn) [Material 902]
Result: ACGIJKL

Value source: patent US20160089464A1
